- TARGET_ENTITY: Beta Secretase enzyme (BACE) (Homo sapiens)
- PROCEDURE_SUMMARY: In vitro enzymatic BACE FRET (fluorescence resonance energy transfer) assay
- Assay type: biochemical
- RECORDED_CONDITIONS: average IC50, enzyme assay; read-out: BACE 1 FRET assay
pIC50: −log10 of the molar value.
Label Yes when pIC50 is at or above 8; anything below gets No.

COC(C)(C)COc1cnc2c(c1)[C@]1(COC(N)=N1)c1cc(-c3cccc(C(F)(F)F)c3)ccc1O2    Yes
NC1=N[C@@]2(CO1)c1cc(-c3cncc(F)c3)ccc1Oc1c(F)cc(C3=CCCOC3)cc12    Yes
NC1=N[C@]2(CO1)c1cc(-c3cncc(F)c3)c(F)cc1Oc1ncc(C3=CCOCC3)cc12    No
COc1cc2c(c(F)c1F)Oc1ccc(-c3cccnc3F)cc1[C@@]21COC(N)=N1    Yes

Hi, just wondering whether `Cc1cc(-c2cc(F)c3c(c2)[C@]2(COC(N)=N2)c2cc(OCC4(C)COC4)ccc2O3)ccn1` shows pIC50 of 8 or higher. No

Would you say `NC1=N[C@@]2(CO1)c1cc(-c3cccnc3F)ccc1Oc1c(F)cc(-c3ccncc3)cc12` shows pIC50 at minimum 8? Yes

Please tell me: is the compound `COc1ccc2c(c1)[C@@]1(COC(N)=N1)c1cc(N3CCN(C)C(C)(C)C3)cc(F)c1O2` at or over 8 in terms of pIC50? No

====

Could you please report measured pIC50 for the items listed next?
- System: Aβ40 in conditioned medium of cells stably expressing Amyloid Precursor Protein (APP)
- PROCEDURE_SUMMARY: In vitro BACE cell-based assay (Aβ40 in conditioned medium, sandwich ELISA)
- RECORDED_CONDITIONS: Homo sapiens, HEK293, average IC50; read-out: HEK cell assay
Numbers only, as −log10 of the molar value.

CC#Cc1cncc(-c2ccc3c(c2)C2(COC(N)=N2)c2cc(C4CCOCC4)nc(F)c2O3)c1 (centres unmarked)    8.40

Hi there! I need pIC50 for each item below, if you can.
1. NC1=N[C@@]2(CO1)c1cc(-c3cncc(F)c3)ccc1Oc1cnc([C@@H]3CCCCO3)cc12
2. NC1=NC2(CO1)c1cc(-c3cccnc3F)ccc1Oc1nc(F)c(C3=CCOCC3)cc12 (centres unmarked)
3. CC1(COc2cc(F)c3c(c2)[C@]2(COC(N)=N2)c2cc(-c4cncc(Cl)c4)ccc2O3)COC1
4. NC1=N[C@@]2(CO1)c1cc(-c3cccnc3F)ccc1Oc1ncc(Br)cc12

[7.20, 7.32, 8.62, 6.25]

Go through the list and state pIC50 for each entry.
1. Cc1cnc(F)c(-c2ccc3c(c2)[C@@]2(COC(N)=N2)c2cc(C4=CCOCC4)ccc2O3)c1
2. N#Cc1cc(-c2ccc3c(c2)[C@@]2(CSC(N)=N2)c2cc(C4=CCCOC4)cnc2O3)ccc1F

1. 7.45
2. 8.00

====

Kindly state IC50 for each of the entries shown.
- TARGET_ENTITY: Beta Secretase enzyme (BACE) (Homo sapiens, UniProt P56817)
- Sequence (P56817 46-501, species assumed): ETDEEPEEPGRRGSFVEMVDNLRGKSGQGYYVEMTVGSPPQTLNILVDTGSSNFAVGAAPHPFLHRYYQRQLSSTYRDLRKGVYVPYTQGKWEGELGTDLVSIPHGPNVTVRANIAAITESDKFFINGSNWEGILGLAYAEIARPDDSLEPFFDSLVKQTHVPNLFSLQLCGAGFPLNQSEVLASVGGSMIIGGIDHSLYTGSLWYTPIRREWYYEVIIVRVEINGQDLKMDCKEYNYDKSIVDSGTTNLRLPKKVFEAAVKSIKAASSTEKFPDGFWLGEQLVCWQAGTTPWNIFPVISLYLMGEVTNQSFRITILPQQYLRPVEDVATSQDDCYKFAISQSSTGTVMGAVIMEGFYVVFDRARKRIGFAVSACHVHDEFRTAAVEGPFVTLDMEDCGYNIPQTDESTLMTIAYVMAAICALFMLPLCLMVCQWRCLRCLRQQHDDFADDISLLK
- PROCEDURE_SUMMARY: In vitro enzymatic BACE FRET (fluorescence resonance energy transfer) assay
- Type: biochemical
- RECORDED_CONDITIONS: average IC50, enzyme assay; read-out: BACE 1 FRET assay

NC1=N[C@@]2(CO1)c1cc(-c3cccnc3F)ccc1Oc1c(F)cc(N3CC4CCC(C3)O4)cc12    0.3 nM

Hello, I would appreciate it if you could give IC50 for each entry below.
1. NC1=N[C@@]2(CO1)c1cc(-c3cccnc3)ccc1Oc1c2cc(-c2cccnc2)[nH]c1=O
2. NC1=N[C@@]2(CO1)c1cc(-c3cccnc3F)ccc1Oc1cnc(-c3ccnc(O)c3)cc12
3. NC1=N[C@@]2(CO1)c1cc(-c3cccc(Cl)c3)ccc1Oc1cnc(Cl)cc12

1. 7.7 nM
2. 25.9 nM
3. 55.3 nM

====

- Tested on: Aβ40 in conditioned medium of cells stably expressing Amyloid Precursor Protein (APP)
- PROCEDURE_SUMMARY: In vitro BACE cell-based assay (Aβ40 in conditioned medium, sandwich ELISA)
- RECORDED_CONDITIONS: Homo sapiens, HEK293, average IC50; read-out: HEK cell assay
pIC50: −log10 of the molar value.
Bucketed by reported pIC50, buckets being LOW (below 7), MID (7 to below 8), HIGH (8 or more)

Known results for molecules:
CC(C)CSc1cnc2c(c1)[C@]1(COC(N)=N1)c1cc(-c3cccnc3)ccc1O2 [Example 184]    LOW
CC1(C)C=C(c2cnc3c(c2)[C@@]2(COC(N)=N2)c2c(ccc(-c4cccnc4F)c2F)O3)CCO1 [Example 350]    LOW
COc1cccc(Nc2ccc3c(c2)[C@@]2(COC(N)=N2)c2cc(N4CCOCC4)cc(F)c2O3)c1 [Example 198]    LOW
NC1=N[C@@]2(CO1)c1cc(-c3ccccc3)ccc1Oc1cnc(C3CCOCC3)cc12 [Example 238]    LOW
COc1nc(Cl)cc2c1Oc1ccc(-c3cccnc3)cc1[C@@]21COC(N)=N1 [Example 830]    LOW
Cc1cc(-c2cc(F)c3c(c2)[C@]2(CSC(N)=N2)c2cc(-c4cccnc4F)ccc2O3)ccn1 [Example 1072]    MID
CC(C)(O)CCc1cc(F)c2c(c1)[C@]1(COC(N)=N1)c1cc(-c3cccnc3F)ccc1O2 [Example 92]    HIGH
NC1=N[C@@]2(CO1)c1cc(-c3cccnc3)ccc1Oc1c2cc(C2=CCCOC2)nc1F [Example 745]    HIGH

Place this molecule in its band: N#Cc1cccc(-c2ccc3c(c2)[C@@]2(COC(N)=N2)c2cc(C4=CCOCC4)cnc2O3)c1 [Example 169] HIGH

Quick check: band for NC1=N[C@]2(CO1)c1cc(C3=CCOCC3)ccc1Oc1ccc(-c3cnccn3)cc12 [Example 192] MID

In plain terms, what class is CC1(C#Cc2cnc3c(c2)[C@@]2(COC(N)=N2)c2c(ccc(-c4cccnc4F)c2F)O3)COC1 [Example 341] ? LOW

Exercise: read the entry Cc1ccc(-c2cc(F)c3c(c2)[C@]2(CSC(N)=N2)c2cc(-c4cccnc4F)ccc2O3)cn1 [Example 1086] and state which class it falls under. LOW

====

- TARGET_ENTITY: Beta Secretase enzyme (BACE) (Homo sapiens)
- PROCEDURE_SUMMARY: In vitro enzymatic BACE FRET (fluorescence resonance energy transfer) assay
- Format: biochemical
- RECORDED_CONDITIONS: average IC50, enzyme assay; read-out: BACE 1 FRET assay
# note: exactly 20 nM is not below, so it is Criterion not met; use Criterion met for IC50 strictly under it

Here's what some known entries look like.
NC1=N[C@@]2(CO1)c1cc(-c3cccnc3F)ccc1Oc1c2cc(C#Cc2cccnc2)nc1F    Criterion met
COc1ncc(-c2ccc3c(c2)[C@@]2(COC(N)=N2)c2cc(/C=C/C(C)(C)C)ncc2O3)cn1    Criterion not met
CC#Cc1cncc(-c2ccc3c(c2)[C@@]2(COC(N)=N2)c2cc(C4=CCCOC4)nc(F)c2O3)c1    Criterion met
N#Cc1cccc(-c2ccc3c(c2)[C@@]2(COC(N)=N2)c2cc(N4CC[C@H](F)C4)ncc2O3)c1    Criterion met
NC1=N[C@]2(CO1)c1cc(-c3cccnc3F)ccc1Oc1cc(OC(F)(F)F)c(Br)cc12    Criterion not met

Criterion: IC50 strictly below 20 nM. Is it met by `CC1(C#Cc2cnc3c(c2)[C@@]2(COC(N)=N2)c2cc(-c4cncc(F)c4)c(F)cc2O3)COC1` ? Criterion not met

Please check: IC50 for `COc1ncccc1-c1ccc2c(c1)[C@@]1(COC(N)=N1)c1cc(C3=CCOCC3)ncc1O2` , strictly under 20 nM or not? Criterion met

Lab note: IC50 threshold 20 nM. Does this molecule come in strictly under it? `CC1(C#Cc2ccc3c(c2)[C@@]2(COC(N)=N2)c2cc(C4=CCOCC4)ncc2O3)COC1` Criterion not met

Say whether its IC50 is strictly beneath 20 nM. Entry: `NC1=N[C@]2(CO1)c1cc(C3=CCOCC3)cnc1Oc1ccc(-c3cccnc3F)c(F)c12` Criterion met

====

- TARGET_ENTITY: Beta Secretase enzyme (BACE) (Homo sapiens)
- PROCEDURE_SUMMARY: In vitro enzymatic BACE FRET (fluorescence resonance energy transfer) assay
- Format: biochemical
- RECORDED_CONDITIONS: average IC50, enzyme assay; read-out: BACE 1 FRET assay
ENDPOINT: IC50 (nM)
One number for each entry, in nM.

NC1=N[C@@]2(CO1)c1cc(-c3cccnc3F)ccc1Oc1cnc(-c3ccnc(C(F)(F)F)c3)cc12 [Example 545]    5.6

Would you mind giving IC50 for every compound in the list below?
1. CC(C)(O)CCc1ccc2c(c1)[C@]1(COC(N)=N1)c1cc(-c3cncnc3)c(F)cc1O2 [Example 96]
2. NC1=N[C@@]2(CO1)c1cc(-c3cncc(N4CCC(F)(F)C4)c3)ccc1Oc1cnc(Cl)cc12 [Example 427]

10.7
640

Hi, could you look up IC50 for each item in my list?
1. NC1=N[C@@]2(CO1)c1cc(-c3cccnc3)ccc1Oc1cnc(N3CCC(F)(F)CC3)cc12 [Example 402]
2. CC1(C#Cc2cc3c(nc2F)Oc2ccc(-c4cccnc4F)cc2[C@]32COC(N)=N2)COC1 [Example 900]
3. CC1(COc2cc3c(cc2F)Oc2ccc(-c4cncc(F)c4)cc2[C@@]32COC(N)=N2)COC1 [Example 327]
4. NC1=N[C@@]2(CO1)c1cc(-c3cccnc3F)ccc1Oc1cnc(-c3ccc(F)c(F)c3)cc12 [Example 534]
5. CC#Cc1cncc(-c2ccc3c(c2)[C@@]2(CSC(N)=N2)c2cc(C4=CCOCC4)cnc2O3)c1 [Example 772]
6. COC[C@H]1SC(N)=NC12c1cc(-c3cccnc3F)ccc1Oc1cnc(-c3ccnc(F)c3)cc12 (single isomer, unassigned) [Example 1095]
7. NC1=N[C@@]2(CO1)c1cc(-c3cccnc3F)ccc1Oc1c(F)cc(C3=CCOC3)cc12 [Example 291]
8. CC(C)(C)/C=C/c1ccc2c(c1)[C@]1(COC(N)=N1)c1cc(Cl)ncc1O2 [Example 383]

2.4
48.1
4.1
0.5
0.5
573
0.6
622

Would you mind listing IC50 for each of the following compounds?
1. CC1(C#Cc2cc3c(cn2)Oc2ccc(-c4cccc(C#N)c4)cc2[C@@]32COC(N)=N2)COC1 [Example 164]
2. NC1=N[C@@]2(CS1)c1cc(-c3cccnc3F)ccc1Oc1c(F)cc(N3C[C@H]4C[C@@H]3CO4)cc12 [Example 1085]
3. CC1(C)C[C@H](c2cnc3c(c2)[C@]2(COC(N)=N2)c2cc(-c4cccc(C#N)c4)ccc2O3)CCO1 [Example 471]

[2.3, 0.3, 5.1]

Field: IC50. Fill in for each record below.
1. NC1=NC2(CO1)c1cc(-c3cccnc3F)ccc1Oc1nc(F)c(-c3ccnc(F)c3)cc12 (stereo not drawn) [Example 151]
2. CC(C)(C#N)COc1cc(F)c2c(c1)[C@]1(COC(N)=N1)c1cc(-c3ccc(F)nc3)ccc1O2 [Example 263]
3. COC(C)(C)C#Cc1ccc2c(c1)[C@@]1(CSC(N)=N1)c1cc(-c3cccnc3)cnc1O2 [Example 671]
4. COc1nc(C2=CCCOC2)cc2c1Oc1ccc(-c3cccnc3)cc1[C@@]21COC(N)=N1 [Example 841]
5. N#Cc1cccc(-c2ccc3c(c2)[C@@]2(COC(N)=N2)c2cc(N4CCOCC4)cc(F)c2O3)c1 [Example 564]

[1.3, 2.3, 19, 1.2, 1.6]
